Reference source: patent US11377425B1

Items are presented alongside their recorded EC50.
biological target: human IL-17AA (Homo sapiens); assay: IL-8 release assay in human epithelial keratinocytes adult (HEKa); conditions: HEKa cells, 3 ng/mL HEK-human IL-17AA + 10 ng/mL human TNFalpha; read-out: Rel EC50 IL-8 release assay

[[record]]
compound = "Cc1n[nH]c(C)c1-c1ccc(NC(=O)[C@@H](NC(=O)c2ccnn2C)C2CC2(C)C)cc1 (single isomer, unassigned)"
tested_on = "human IL-17AA (Homo sapiens)"
recorded_measurement = "> 1000 nM"

[[record]]
compound = "Cc1n[nH]c(C)c1-c1ccc(NC(=O)C(NC(=O)c2ccnn2[C@@H](C)CO)C2CCCCCCC2)cc1 (single isomer, unassigned) [Example 151]"
tested_on = "human IL-17AA (Homo sapiens)"
recorded_measurement = "< 100 nM"

[[record]]
compound = "CC(C)n1nccc1C(=O)NC(C(=O)Nc1ccc(-c2c(C3CC3)n[nH]c2C2CC2)cc1)C(C1CC1)C1CC1 (single isomer, unassigned) [Example 385]"
tested_on = "human IL-17AA (Homo sapiens)"
recorded_measurement = "< 100 nM"

[[record]]
compound = "Cc1n[nH]c(C)c1-c1ccc(NC(=O)[C@@H](NC(=O)c2ccnn2C)C(C2CCC2)C2CCC2)cc1"
tested_on = "human IL-17AA (Homo sapiens)"
recorded_measurement = "< 100 nM"


Prompt: Quick check: EC50 of "Cc1n[nH]c(C)c1-c1ccc(NC(=O)[C@@H](NC(=O)c2cnnn2C(C)C)[C@H]2CC[C@H](C)CC2)cc1" ?
Completion: < 100 nM

Prompt: Also, Cc1n[nH]c(C)c1-c1ccc(NC(=O)C(NC(=O)c2ccnn2C)C2CCCC2C)cc1 (racemic) please.
Completion: 100 to 1000 nM

* * *

Below, each of the compounds is paired with its reported pEC50 value.
target: human IL-17AA (Homo sapiens, UniProt Q16552); construct: host or cells: HEK (human embryonic kidney) cells; test: IL-8 release assay in human epithelial keratinocytes adult (HEKa); assay type: cell-based; conditions: HEKa cells, 3 ng/mL HEK-human IL-17AA + 10 ng/mL human TNFalpha; read-out: Rel EC50 IL-8 release assay
Sequence (Q16552 24-155): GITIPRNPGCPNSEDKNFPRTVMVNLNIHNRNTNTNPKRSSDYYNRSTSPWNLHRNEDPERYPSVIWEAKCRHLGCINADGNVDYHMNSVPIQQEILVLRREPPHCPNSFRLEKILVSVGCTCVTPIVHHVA
pEC50: −log10 of the molar value.

Below, each entry is followed by its recorded pEC50 result.
[[record]]
compound = "COc1n[nH]c(C)c1-c1ccc(NC(=O)[C@@H](NC(=O)c2ccnn2C)C2CCCCC2)cc1"
tested_on = "human IL-17AA (Homo sapiens, UniProt Q16552)"
property_name = "pEC50"
recorded_measurement = "< 6.00"

[[record]]
compound = "Cc1[nH]nc(CO)c1-c1ccc(NC(=O)[C@@H](NC(=O)OC(C)(C)C)C(c2ccccc2)c2ccccc2)cc1"
tested_on = "human IL-17AA (Homo sapiens, UniProt Q16552)"
property_name = "pEC50"
recorded_measurement = "6.00 to 7.00"


Prompt: Which pEC50 is reported for this compound? "Cc1n[nH]c(C)c1-c1ccc(NC(=O)[C@@H](NC(=O)c2coc3ccccc23)C2CCCCC2)cc1"
Completion: 6.00 to 7.00

Prompt: Cool, now "Cc1n[nH]c(C)c1-c1ccc(NC(=O)[C@@H](NC(=O)c2ccnn2C)[C@@H]2CCc3c(F)cc(Br)cc32)cc1"
Completion: 6.00 to 7.00

Prompt: How about Cc1n[nH]c(C)c1-c1ccc(NC(=O)[C@@H](NC(=O)N2CCCC2CCCO)C2CCCCC2)cc1 (stereo partly shown) ?
Completion: < 6.00

Prompt: Another compound to check: "Cc1n[nH]c(C)c1-c1ccc(NC(=O)[C@@H](NC(=O)c2ccnn2C)[C@@H]2CC(C)(C)CCC2(F)F)cc1"
Completion: > 7.00

Prompt: Next compound: "Cc1n[nH]c(C)c1-c1ccc(NC(=O)[C@@H](NC(=O)OC2CC2)C(c2ccccc2)c2ccccc2)cc1"
Completion: 6.00 to 7.00

* * *

// pEC50 lookup, one value per entry
Target: UniProt:Q16552
Experiment: IL-8 release assay in human epithelial keratinocytes adult (HEKa)
Details: HEKa cells, 3 ng/mL HEK-human IL-17AA + 10 ng/mL human TNFalpha; read-out: Rel EC50 IL-8 release assay
Protocol: Example 138: IL-8 Release Assay in Human Epithelial Keratinocytes Adult (HEKa) Keratinocytes were seeded at 3500 cells/well in 384-well ViewPlates (Perkin Elmer) in Epilife medium (Thermo Fisher) containing human keratinocyte growth supplement (HKGS) without hydrocortisone and incubated in a humid incubator at 37° C. 5% CO2, overnight. […] IL-8 released from the cells was measured by the use of a commercial homogenous time-resolved fluorescence (HTRF) assay (CisBio). […]
pEC50: −log10 of the molar value.

[[record]]
compound = "Cc1n[nH]c(C)c1-c1ccc(NC(=O)[C@@H](NC(=O)c2ccnn2C(C)CO)C2CCCCC2)cc1 (single isomer, unassigned) [Example 105]"
recorded_measurement = "6.00 to 7.00"

[[record]]
compound = "Cc1n[nH]c(C)c1-c1ccc(NC(=O)[C@@H](NC(=O)c2ccnn2C(C)C)[C@H]2CCOc3ccc(F)cc32)cc1"
recorded_measurement = "> 7.00"

[[record]]
compound = "Cc1n[nH]c(C)c1-c1ccc(NC(=O)C(NC(=O)c2ccnn2C)C2CCC3(CC2)CC3)cc1 (racemic)"
recorded_measurement = "6.00 to 7.00"

[[record]]
compound = "CC(C)c1nc[nH]c1-c1ccc(NC(=O)[C@@H](NC(=O)c2ccnn2C(C)C)C(C2CC2)C2CC2)cc1"
recorded_measurement = "6.00 to 7.00"

[[record]]
compound = "Cc1n[nH]cc1-c1ccc(NC(=O)[C@@H](NC(=O)c2ccnn2C)C(c2ccccc2)c2ccccc2)cc1O"
recorded_measurement = "6.00 to 7.00"

[[record]]
compound = "Cc1n[nH]c(C)c1-c1ccc(NC(=O)C(NC(=O)c2ccnn2C)C(c2ccccc2)C2CCC2)cc1 (single isomer, unassigned) [Example 300]"
recorded_measurement = "< 6.00"


Prompt: Which value of pEC50 has been reported for "COCCn1nccc1C(=O)N[C@H](C(=O)Nc1ccc(-c2c(C)n[nH]c2C)cc1)C(C1CC1)C1CC1" in the records?
Completion: > 7.00

Prompt: Quick one: "Cc1n[nH]c(C)c1-c1ccc(NC(=O)[C@@H](NC(=O)c2ccnn2C(C)(C)C)C2CCCCC2)cc1"
Completion: < 6.00

Prompt: And then Cc1n[nH]c(C)c1-c1ccc(NC(=O)C(NC(=O)c2ccnn2C)C(C2CC2)C2CC2)cc1 (stereo not drawn) , what is it?
Completion: 6.00 to 7.00

* * *

molecular target: human IL-17AA (Homo sapiens, UniProt Q16552); assay: IL-8 release assay in human epithelial keratinocytes adult (HEKa); conditions: HEKa cells, 3 ng/mL HEK-human IL-17AA + 10 ng/mL human TNFalpha; read-out: Rel EC50 IL-8 release assay
pEC50: −log10 of the molar value.
PROPERTY NAME: pEC50

Worked examples, 5 compounds total:
[[record]]
compound = "Cc1n[nH]c(C)c1-c1ccc(NC(=O)[C@@H](NC(=O)N2CCCC2C(C)(C)O)C2CCCCC2)cc1 (single isomer, unassigned) [Example 465]"
tested_on = "human IL-17AA (Homo sapiens, UniProt Q16552)"
recorded_measurement = "< 6.00"

[[record]]
compound = "Cc1n[nH]c(C)c1-c1ccc(NC(=O)[C@@H](NC(=O)c2ccnn2C)[C@H]2CC[C@H](C)CC2)cc1"
tested_on = "human IL-17AA (Homo sapiens, UniProt Q16552)"
recorded_measurement = "> 7.00"

[[record]]
compound = "CCOc1n[nH]c(C)c1-c1ccc(NC(=O)[C@@H](NC(=O)c2ccnn2C)C2CCCCC2)cc1"
tested_on = "human IL-17AA (Homo sapiens, UniProt Q16552)"
recorded_measurement = "6.00 to 7.00"

[[record]]
compound = "Cc1n[nH]c(C)c1-c1ccc(NC(=O)C(NC(=O)c2ccnn2C)C2CCCCCCC2)cc1 (single isomer, unassigned) [Example 157]"
tested_on = "human IL-17AA (Homo sapiens, UniProt Q16552)"
recorded_measurement = "< 6.00"

[[record]]
compound = "Cc1n[nH]c(C)c1-c1ccc(NC(=O)C(NC(=O)c2ccnn2C(C)C)C(C2CC(F)(F)C2)C2CC(F)(F)C2)cc1 (centres unmarked) [Example 295]"
tested_on = "human IL-17AA (Homo sapiens, UniProt Q16552)"
recorded_measurement = "6.00 to 7.00"


--- query ---
Prompt: Report pEC50 for "Cc1n[nH]c(C)c1-c1ccc(NC(=O)[C@@H](NC(=O)c2ccnn2CC(C)C)C(C2CC2)C2CC2)cc1" please.
Completion: > 7.00

* * *

Biological target: human IL-17AA (Homo sapiens, UniProt Q16552)
Experiment: IL-8 release assay in human epithelial keratinocytes adult (HEKa)
Details: HEKa cells, 3 ng/mL HEK-human IL-17AA + 10 ng/mL human TNFalpha; read-out: Rel EC50 IL-8 release assay
Method: Example 138: IL-8 Release Assay in Human Epithelial Keratinocytes Adult (HEKa) Keratinocytes were seeded at 3500 cells/well in 384-well ViewPlates (Perkin Elmer) in Epilife medium (Thermo Fisher) containing human keratinocyte growth supplement (HKGS) without hydrocortisone and incubated in a humid incubator at 37° C. 5% CO2, overnight. […] IL-8 released from the cells was measured by the use of a commercial homogenous time-resolved fluorescence (HTRF) assay (CisBio). […]
PROPERTY NAME: EC50

[[record]]
compound = "Cc1n[nH]c(N)c1-c1ccc(NC(=O)[C@@H](NC(=O)c2ccnn2C)C2CCCCCC2)cc1 [Example 450]"
recorded_measurement = "100 to 1000 nM"

[[record]]
compound = "Cc1n[nH]c(C)c1-c1ccc(NC(=O)[C@@H](NC(=O)c2ccnn2C(C)C(F)F)C(C2CC2)C2CC2)cc1 (stereo partly shown) [Example 189]"
recorded_measurement = "< 100 nM"

[[record]]
compound = "Cc1n[nH]c(C)c1-c1ccc(NC(=O)[C@@H](NC(=O)C2(F)CC2)C2CCCCC2)cc1 [Example 66]"
recorded_measurement = "100 to 1000 nM"

[[record]]
compound = "Cc1n[nH]c(C)c1-c1ccc(NC(=O)[C@@H](NC(=O)c2ccnn2CCCO)[C@H]2CC[C@H](C)CC2)cc1 [Example 208]"
recorded_measurement = "< 100 nM"

[[record]]
compound = "CCn1nccc1C(=O)N[C@H](C(=O)Nc1ccc(-c2c(C)n[nH]c2C)c(O)c1)C(C1CC1)C1CC1 [Example 413]"
recorded_measurement = "< 100 nM"

[[record]]
compound = "Cn1cncc1-c1ccc(NC(=O)C(NC(=O)c2ccnn2C)C(c2cccc(F)c2)c2cccc(F)c2)cc1 (single isomer, unassigned) [Example 374A]"
recorded_measurement = "> 1000 nM"


# ---- query compound ----
Prompt: Look up EC50 for this compound: Cc1n[nH]c(C)c1-c1ccc(NC(=O)[C@@H](NC(=O)C2(F)CC2)C(C2CC2)C2CC2)cc1O [Example 415]
Completion: 100 to 1000 nM
